Test system: CpG-ODN effect on thymidine uptake by WEHI 231 B-cells
Assay: Inhibition of CpG-ODN effect on thymidine uptake by WEHI 231 B-cells treated with anti-surface IgM
Type: cell-based, murine
Details: Mus musculus, WEHI231; concentration required for 50% blockage of the ability of CpG-ODN to rescue WEHI 231 cells from anti-surface IgM-induced cell death; read-out: 50% Efficacy
Recorded measurements of pEC50, one per entry
By convention, pEC50 is the negative base-10 log of a molar concentration.

Some solved entries appear below for comparison.
>  <COMPOUND>
CCN(CC)CCCC(C)Nc1c2ccc(Cl)cc2nc2ccc(OC)cc12 (stereo not drawn)

>  <TGT>
CpG-ODN effect on thymidine uptake by WEHI 231 B-cells

>  <ATTRIBUTE_MEASURED>
pEC50

>  <ASSAY_VALUE>
7.99

$$$$
>  <COMPOUND>
CCN(CCO)CCCC(C)Nc1ccnc2cc(Cl)ccc12 (stereo not drawn) [Hydroxychloroquine, reference compound]

>  <TGT>
CpG-ODN effect on thymidine uptake by WEHI 231 B-cells

>  <ATTRIBUTE_MEASURED>
pEC50

>  <ASSAY_VALUE>
6.39

$$$$

// C=C[C@H]1C[N@@]2CC[C@H]1C[C@H]2[C@H](O)c1ccnc2ccc(OC)cc12 [Quinine, reference compound] : pEC50 value = 4.64
